List of T/C values.
system: L1210 leukemia ip in BDF1 mice, survival T/C; assay: NCI In Vivo Anticancer Drug Screen. Data for tumor model L1210 Leukemia (intraperitoneal) in B6D2F1 (BDF1) mice; details: endpoint: mean survival time; dose: 100.0 mg/kg/injection; schedule: Q01DX001 (ip); vehicle: Klucel (hydroxypropylcellulose) (HPC); higher = longer survival
Inconclusive results and toxic doses are left out.

Sample records with T/C:
Suppose we examine the compound Cc1ccc(S(=O)(=O)OCC2C3CCC4C3C(C)(C)CCCC24C)cc1 (configuration not stated) ; what T/C value has been reported?
107 % of control

Next entry: `Cc1c(C#N)c2n(c1C)CCN2`
91 % of control

Next entry: `Nc1nc2nnc(-c3ccccc3)c(-c3ccccc3)n2n1`
93 % of control

Next entry: OC1(c2ccc(Cl)cc2)CCN(C2CC2c2ccccc2)CC1 (configuration not stated)
98 % of control

Next entry: COc1ccc2c(c1)CCC1C2=CCC2C(=O)CCC(=O)C21 (configuration not stated)
101 % of control

Next:
Suppose we examine the compound `Cc1ccc(NC(=O)CCc2ccc(N3C(N)=NC(N)=NC3(C)C)cc2)cc1S(=O)(=O)F` ; what T/C value has been reported?
90 % of control

Next entry: `Nc1nc(Br)c(Br)nc1C(=O)O`
102 % of control

Next entry: `CN(C)C(=S)Oc1ccc(C(C)(C)C)cc1`
96 % of control

Next entry: `CN(C)c1ccc2nc(C(=O)O)c(=O)n(C)c2c1`
101 % of control

Next entry: `C=CCc1cnc(C(F)(F)F)[nH]c1=O`
94 % of control

Next entry: `CCCCCCCCCCCCOc1ccc(Sc2ccc([N+](=O)[O-])cc2)cc1`
95 % of control

Next entry: `CCOC(=O)C(NC(=O)NS(=O)(=O)c1ccc(C)cc1)C(=O)OCC`
91 % of control

----------
test system: L1210 leukemia ip in BDF1 mice, survival T/C; assay: NCI In Vivo Anticancer Drug Screen. Data for tumor model L1210 Leukemia (intraperitoneal) in B6D2F1 (BDF1) mice; conditions: endpoint: mean survival time; dose: 75.0 mg/kg/injection; schedule: Q01DX001 (ip); vehicle: saline; higher = longer survival
Inconclusive results and toxic doses are left out.
List of T/C values.

Sample records with T/C:
Suppose we examine the molecule `C/C=C/CC1(CC(C)C)C(=O)NC(=S)NC1=O` ; what T/C value has been reported?
102 % of control

Next entry: `Cc1[nH]nc(C(=O)N(C)C)c1N=NN(C)C`
116 % of control

Next entry: `ClCCCNCCCCl`
101 % of control

Next entry: `Cn1ncc2c(N)[nH]nc21`
107 % of control

Next entry: `Cc1cc(O)c(CN(C)C)cc1O`
103 % of control

Next:
Suppose we examine the molecule `CCNC(=O)N1CCN(c2ccc(Cl)cc2)CC1` ; what T/C value has been reported?
97 % of control

Next entry: `CC(C)(C)c1ccc(P(=O)(O)C(C)(C)C)cc1`
96 % of control

Next entry: CC/C=C(/C)C(C#N)(C(=O)O)C(C)C (stereo not drawn)
98 % of control

Next entry: CCOC(=O)C1CCCCN1 (stereo not drawn)
91 % of control

Next entry: CC1CCC(C(C)C)C(NCCO)C1 (stereo not drawn)
103 % of control

Next entry: `NNC(=O)NO`
101 % of control

Next entry: `CCOC(=O)NC1=NCC(C)(C)S1`
97 % of control

Next entry: CC1c2cc(O)c(O)cc2CCN1C (stereo not drawn)
104 % of control

----------
tested on: L1210 leukemia ip in BDF1 mice, survival T/C; assay: NCI In Vivo Anticancer Drug Screen. Data for tumor model L1210 Leukemia (intraperitoneal) in B6D2F1 (BDF1) mice; settings: endpoint: mean survival time; dose: 400.0 mg/kg/injection; schedule: Q04DX003 (ip); vehicle: Klucel (hydroxypropylcellulose) (HPC); higher = longer survival
Toxic doses and inconclusive results are not listed.
List of T/C values.

What is its T/C for L1210 leukemia ip in BDF1 mice, survival T/C? Entry: `Cc1ccc([N+](=O)[O-])c(OC(=O)Nc2ccccc2Cl)c1`
100 % of control

Next entry: `O=C(O)c1cccnc1Cl`
91 % of control

Next entry: `CS(=O)(=O)NCCOc1ccc(C(=O)O)cc1`
95 % of control

Next entry: `CCOC(=O)C(COS(=O)(=O)c1ccc(C)cc1)(COS(=O)(=O)c1ccc(C)cc1)C(=O)OCC`
93 % of control

----------
system: L1210 leukemia ip in BDF1 mice, survival T/C; assay: NCI In Vivo Anticancer Drug Screen. Data for tumor model L1210 Leukemia (intraperitoneal) in B6D2F1 (BDF1) mice; conditions: endpoint: mean survival time; dose: 200.0 mg/kg/injection; schedule: Q01DX001 (ip); vehicle: other; higher = longer survival
Toxic doses and inconclusive results are not listed.
value.type: T/C

Suppose we examine the compound `CCCn1c(=O)cc(C)c2ccccc21` ; what T/C value has been reported?
90 % of control

Next entry: `CCOC(=O)n1cnc2c(Cl)ncnc21`
102 % of control

Next entry: `CC(=N/N(Cc1ccccc1)c1ccccc1)/C(C)=N/N(Cc1ccccc1)c1ccccc1`
89 % of control

Next entry: `CC1(C)CCC(=O)C=C1c1c[nH]c2ccccc12`
88 % of control

Next entry: `Cc1nnc(N)s1`
102 % of control

Next:
Suppose we examine the compound `Nc1cncc2ncc(-c3ccc(Cl)cc3)nc12` ; what T/C value has been reported?
94 % of control

Next entry: `O=[N+]([O-])c1ccc(CCc2ccc([N+](=O)[O-])cc2)cc1`
97 % of control

----------
test system: L1210 leukemia ip in BDF1 mice, survival T/C; test: NCI In Vivo Anticancer Drug Screen. Data for tumor model L1210 Leukemia (intraperitoneal) in B6D2F1 (BDF1) mice; settings: endpoint: mean survival time; dose: 200.0 mg/kg/injection; schedule: Q01DX001 (ip); vehicle: saline; higher = longer survival
Toxic doses and inconclusive results are not listed.
List of T/C values.

Sample records with T/C:
What is its T/C for L1210 leukemia ip in BDF1 mice, survival T/C? Entry: `Nc1ccc2ncnn2c1`
106 % of control

Next entry: `O=C(O)CSc1n[nH]c(=O)[nH]c1=O`
97 % of control

Next entry: `NNS(=O)(=O)Cc1ccccc1`
95 % of control

Next entry: `CC(C)c1cc(C(C)C)c(S(=O)(=O)/C=C/c2ccccc2)c(C(C)C)c1`
97 % of control

Next entry: `CNC(=O)NC1CCOCC1`
96 % of control

Next entry: `CC(=O)Nc1ccc(SC(Sc2ccc(NC(C)=O)cc2)c2ccccc2)cc1`
92 % of control

Next entry: `O=P(OCCCCl)(OCCCCl)C(Cl)(Cl)Cl`
101 % of control

Next entry: Clc1ncnc2c1ncn2C1CCCCO1 (centres undefined)
98 % of control

Next:
What is its T/C for L1210 leukemia ip in BDF1 mice, survival T/C? Entry: CCOP(=O)(NC1C2CCC(C2)C1C)OCC (centres undefined)
98 % of control

Next entry: `CCN1CCCCCCCCCC(=N/O)/C(=N\O)C1`
95 % of control

Next entry: `c1ccc(OB(Oc2ccccc2)Oc2ccccc2)cc1`
95 % of control

Next entry: `CCCCCCCCSP(=S)(N1CC1)N1CC1`
98 % of control

Next entry: `Nc1ncnc2scnc12`
99 % of control

Next entry: `CN(Cc1ccccc1)c1ccccc1`
97 % of control

Next entry: `O=[N+]([O-])c1ccc(S(=O)(=O)/N=C2\CCS(=O)(=O)c3ccccc32)cc1`
92 % of control

Next entry: `COC1=C(N)C(=O)C(OC)=C(N)C1=O`
97 % of control

Next entry: `O=C(NCCBr)C(F)(F)F`
109 % of control

Next entry: `CC(=O)NC1=C(S(=O)(=O)O)c2ccccc2C1`
115 % of control

Next entry: `O=C(O)c1cccc(Br)c1[N+](=O)[O-]`
101 % of control

Next entry: `O=[N+]([O-])c1ccnc(NC2CCCCC2)c1`
96 % of control

----------
test system: L1210 leukemia ip in BDF1 mice, survival T/C; test: NCI In Vivo Anticancer Drug Screen. Data for tumor model L1210 Leukemia (intraperitoneal) in B6D2F1 (BDF1) mice; conditions: endpoint: mean survival time; dose: 50.0 mg/kg/injection; schedule: Q01DX009 (ip); vehicle: water; higher = longer survival
Inconclusive results and toxic doses are left out.
List of T/C values.

Suppose we examine the compound `O/C(=C/C(=S)S)c1ccco1` ; what T/C value has been reported?
93 % of control

Next entry: `O=C1C=CC(=O)c2c(O)c(CBr)c(CBr)c(O)c21`
89 % of control

Next entry: `CCCN=C(N)N=C(N)N`
108 % of control

Next:
Suppose we examine the compound `O=Cc1ccc(/C=C2\NC(=O)NC2=O)cc1` ; what T/C value has been reported?
92 % of control

Next entry: NC(Cc1c[nH]c2ccccc12)C(=O)OCc1ccccc1 (stereo not given)
107 % of control
